Sourced from paper PMC6354011

assay system: Electric eel acetylcholinesterase (AChE, EC 3.1.1.7) (Electrophorus electricus)
Construct: purchased Sigma-Aldrich (USA)
assay procedure: biochemical
applied conditions: second read; read-out: AChE IC50 (µM) Second read
Lab note: compare IC50 with 200 µM, writing rule met if less and rule not met if equal or more.

molecule	assigned label
Cc1ccc2nc(-c3ccc(-c4ccccc4)cc3)cn2c1 [Compound 2h]	rule met
Cc1ccn2cc(C34CC5CC(CC(C5)C3)C4)nc2c1.O [Compound 2c]	rule not met
Clc1cccn2cc(-c3ccc(-c4ccccc4)cc3)nc12 [Compound 2i]	rule not met
Cc1cccn2cc(-c3ccc(-c4ccccc4)cc3)nc12 [Compound 2g]	rule not met
Cc1cccn2cc(C34CC5CC(CC(C5)C3)C4)nc12.O [Compound 2b]	rule not met

----------
assay system: Electric eel acetylcholinesterase (AChE, EC 3.1.1.7) (Electrophorus electricus, UniProt O42275)
Construct: purchased Sigma-Aldrich (USA)
Sequence (O42275 24-633): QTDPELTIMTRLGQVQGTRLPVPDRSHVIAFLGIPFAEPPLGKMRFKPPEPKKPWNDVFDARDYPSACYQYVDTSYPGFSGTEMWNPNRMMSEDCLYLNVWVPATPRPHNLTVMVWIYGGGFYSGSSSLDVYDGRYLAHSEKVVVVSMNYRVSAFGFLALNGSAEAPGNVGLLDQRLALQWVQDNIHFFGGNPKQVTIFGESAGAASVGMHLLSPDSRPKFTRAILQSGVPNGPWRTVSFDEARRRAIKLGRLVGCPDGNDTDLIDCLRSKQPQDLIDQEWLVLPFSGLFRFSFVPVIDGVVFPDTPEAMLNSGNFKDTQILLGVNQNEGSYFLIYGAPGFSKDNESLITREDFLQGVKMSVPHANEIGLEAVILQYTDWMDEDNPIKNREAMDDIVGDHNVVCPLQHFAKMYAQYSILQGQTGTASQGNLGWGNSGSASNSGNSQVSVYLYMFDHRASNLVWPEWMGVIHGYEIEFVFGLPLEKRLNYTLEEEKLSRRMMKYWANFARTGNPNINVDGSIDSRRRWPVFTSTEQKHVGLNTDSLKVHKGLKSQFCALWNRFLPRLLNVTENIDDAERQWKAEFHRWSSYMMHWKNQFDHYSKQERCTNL
assay procedure: biochemical
applied conditions: second read; read-out: AChE IC50 (µg/mL) Second read (converted)
Lab note: compare IC50 with 200 µM, writing satisfied if less and not satisfied if equal or more.

structure string	assigned label
Cc1ccc2nc(-c3ccc(-c4ccccc4)cc3)cn2c1	satisfied
Cc1cccn2cc(-c3ccc(-c4ccccc4)cc3)nc12	not satisfied
Clc1cccn2cc(-c3ccc(-c4ccccc4)cc3)nc12	not satisfied
Cc1ccn2cc(C34CC5CC(CC(C5)C3)C4)nc2c1.O	not satisfied

----------
assay system: Electric eel acetylcholinesterase (AChE, EC 3.1.1.7) (Electrophorus electricus, UniProt O42275)
Construct: purchased Sigma-Aldrich (USA)
assay procedure: biochemical
applied conditions: first read; read-out: AChE IC50 (µg/mL) First read (converted)
Quick list: IC50 per entry.

structure string	IC50, µM
Clc1cccn2cc(-c3ccc(-c4ccccc4)cc3)nc12	268
Cc1cccn2cc(-c3ccc(-c4ccccc4)cc3)nc12	343
c1ccc(-c2ccc(-c3cn4ccccc4n3)cc2)cc1	228
Cc1ccc2nc(-c3ccc(-c4ccccc4)cc3)cn2c1	83.7

----------
assay system: Electric eel acetylcholinesterase (AChE, EC 3.1.1.7) (Electrophorus electricus)
Construct: purchased Sigma-Aldrich (USA)
assay procedure: biochemical
applied conditions: mean ± SD, n = 3; read-out: IC50 (µM) AChE
Quick list: IC50 per entry.

molecule	assay system	IC50
Cc1cccn2cc(C34CC5CC(CC(C5)C3)C4)nc12.O	Electric eel acetylcholinesterase (AChE, EC 3.1.1.7) (Electrophorus electricus)	657 µM
COc1ccc(-c2cn3cccc(C)c3n2)cc1	Electric eel acetylcholinesterase (AChE, EC 3.1.1.7) (Electrophorus electricus)	> 2000 µM
Clc1ccc(-c2cn3ccccc3n2)cc1Cl	Electric eel acetylcholinesterase (AChE, EC 3.1.1.7) (Electrophorus electricus)	> 2000 µM
Cc1ccc2nc(-c3ccc(-c4ccccc4)cc3)cn2c1	Electric eel acetylcholinesterase (AChE, EC 3.1.1.7) (Electrophorus electricus)	79 µM
Cc1cccn2cc(-c3ccc(Br)cc3)nc12	Electric eel acetylcholinesterase (AChE, EC 3.1.1.7) (Electrophorus electricus)	> 2000 µM
Clc1ccn2cc(C34CC5CC(CC(C5)C3)C4)nc2c1	Electric eel acetylcholinesterase (AChE, EC 3.1.1.7) (Electrophorus electricus)	> 2000 µM
c1ccn2cc(C34CC5CC(CC(C5)C3)C4)nc2c1 [Compound 2a, 2-(adamantan-1-yl)imidazo[1,2-a]pyridine]	Electric eel acetylcholinesterase (AChE, EC 3.1.1.7) (Electrophorus electricus)	> 2000 µM
COc1ccc(-c2cn3ccccc3n2)cc1	Electric eel acetylcholinesterase (AChE, EC 3.1.1.7) (Electrophorus electricus)	> 2000 µM
Cc1cccn2cc(-c3ccc(Cl)cc3)nc12	Electric eel acetylcholinesterase (AChE, EC 3.1.1.7) (Electrophorus electricus)	> 2000 µM
Clc1cccn2cc(-c3ccc(-c4ccccc4)cc3)nc12	Electric eel acetylcholinesterase (AChE, EC 3.1.1.7) (Electrophorus electricus)	253 µM

----------
Quick list: IC50 per entry.
assay system: Electric eel acetylcholinesterase (AChE, EC 3.1.1.7) (Electrophorus electricus, UniProt O42275)
Construct: purchased Sigma-Aldrich (USA)
assay procedure: biochemical
applied conditions: average of three reads; read-out: AChE IC50 (µM) Average
measured attribute: IC50 (µM)

molecule	measured attribute	test value
Cc1cccn2cc(-c3ccc(-c4ccccc4)cc3)nc12 [Compound 2g]	IC50	288
Cc1cccn2cc(C34CC5CC(CC(C5)C3)C4)nc12.O [Compound 2b]	IC50	657
Clc1cccn2cc(-c3ccc(-c4ccccc4)cc3)nc12 [Compound 2i]	IC50	253
Cc1ccn2cc(C34CC5CC(CC(C5)C3)C4)nc2c1.O [Compound 2c]	IC50	270
c1ccc(-c2ccc(-c3cn4ccccc4n3)cc2)cc1 [Compound 2f]	IC50	208
Cc1ccc2nc(-c3ccc(-c4ccccc4)cc3)cn2c1 [Compound 2h]	IC50	79.2

----------
assay system: Electric eel acetylcholinesterase (AChE, EC 3.1.1.7) (Electrophorus electricus, UniProt O42275)
Construct: purchased Sigma-Aldrich (USA)
assay procedure: biochemical
applied conditions: third read; read-out: AChE IC50 (µg/mL) Third read (converted)
Quick list: IC50 per entry.
measured attribute: IC50 (µM)

structure string	measured attribute	test value
c1ccc(-c2ccc(-c3cn4ccccc4n3)cc2)cc1	IC50	200
Clc1cccn2cc(-c3ccc(-c4ccccc4)cc3)nc12	IC50	265
Cc1cccn2cc(-c3ccc(-c4ccccc4)cc3)nc12	IC50	258
Cc1ccc2nc(-c3ccc(-c4ccccc4)cc3)cn2c1	IC50	67.3
Cc1ccn2cc(C34CC5CC(CC(C5)C3)C4)nc2c1.O	IC50	234

----------
assay system: equine serum butyrylcholinesterase (BChE, EC 3.1.1.8) (Equus caballus, UniProt P81908)
Construct: equine serum butyrylcholinesterase (BChE, EC 3.1.1.8); purchased Sigma-Aldrich (USA); host or cells: equine serum
Sequence (P81908 whole entry): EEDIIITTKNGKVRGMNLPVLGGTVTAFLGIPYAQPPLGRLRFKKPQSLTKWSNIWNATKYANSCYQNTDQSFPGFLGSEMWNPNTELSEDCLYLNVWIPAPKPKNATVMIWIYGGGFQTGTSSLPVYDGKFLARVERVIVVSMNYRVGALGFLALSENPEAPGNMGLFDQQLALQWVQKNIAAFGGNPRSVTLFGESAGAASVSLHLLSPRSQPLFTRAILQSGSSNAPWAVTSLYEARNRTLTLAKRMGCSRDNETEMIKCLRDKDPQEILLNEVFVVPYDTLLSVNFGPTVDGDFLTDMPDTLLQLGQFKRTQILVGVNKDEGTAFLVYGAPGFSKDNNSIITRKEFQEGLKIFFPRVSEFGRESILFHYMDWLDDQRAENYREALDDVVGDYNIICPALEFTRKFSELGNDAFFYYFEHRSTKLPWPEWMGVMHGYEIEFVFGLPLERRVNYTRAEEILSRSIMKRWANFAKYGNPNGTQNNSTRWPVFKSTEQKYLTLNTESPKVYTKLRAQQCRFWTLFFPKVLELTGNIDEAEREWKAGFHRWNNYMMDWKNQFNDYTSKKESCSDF
assay procedure: biochemical
Assay type: biochemical
applied conditions: second read; read-out: BChE IC50 (µg/mL) Second read (converted)
measured attribute: IC50 (µM)

molecule	assay system	test value
Cc1ccc2nc(-c3ccc(-c4ccccc4)cc3)cn2c1 [Compound 2h]	equine serum butyrylcholinesterase (BChE, EC 3.1.1.8) (Equus caballus, UniProt P81908)	476
Cc1cccn2cc(C34CC5CC(CC(C5)C3)C4)nc12.O [Compound 2b]	equine serum butyrylcholinesterase (BChE, EC 3.1.1.8) (Equus caballus, UniProt P81908)	700
Cc1cccn2cc(-c3ccc(-c4ccccc4)cc3)nc12 [Compound 2g]	equine serum butyrylcholinesterase (BChE, EC 3.1.1.8) (Equus caballus, UniProt P81908)	322
Cc1cccn2cc(-c3ccc(Cl)c(Cl)c3)nc12 [Compound 2k]	equine serum butyrylcholinesterase (BChE, EC 3.1.1.8) (Equus caballus, UniProt P81908)	176

----------
Quick list: IC50 per entry.
assay system: equine serum butyrylcholinesterase (BChE, EC 3.1.1.8) (Equus caballus, UniProt P81908)
Construct: equine serum butyrylcholinesterase (BChE, EC 3.1.1.8); purchased Sigma-Aldrich (USA); host or cells: equine serum
assay procedure: biochemical
Format: biochemical
applied conditions: third read; read-out: BChE IC50 (µg/mL) Third read (converted)

structure string	IC50
Cc1cccn2cc(C34CC5CC(CC(C5)C3)C4)nc12.O	644 µM
Cc1cccn2cc(-c3ccc(Cl)c(Cl)c3)nc12	171 µM
Cc1ccc2nc(-c3ccc(-c4ccccc4)cc3)cn2c1	527 µM
Cc1cccn2cc(-c3ccc(-c4ccccc4)cc3)nc12	311 µM

----------
assay system: Electric eel acetylcholinesterase (AChE, EC 3.1.1.7) (Electrophorus electricus, UniProt O42275)
Construct: purchased Sigma-Aldrich (USA)
assay procedure: biochemical
applied conditions: third read; read-out: AChE IC50 (µM) Third read
Quick list: IC50 per entry.

structure string	IC50
Clc1cccn2cc(-c3ccc(-c4ccccc4)cc3)nc12	266 µM
Cc1cccn2cc(-c3ccc(-c4ccccc4)cc3)nc12	258 µM
Cc1ccc2nc(-c3ccc(-c4ccccc4)cc3)cn2c1	67.4 µM
Cc1cccn2cc(C34CC5CC(CC(C5)C3)C4)nc12.O	603 µM
c1ccc(-c2ccc(-c3cn4ccccc4n3)cc2)cc1	200 µM
Cc1ccn2cc(C34CC5CC(CC(C5)C3)C4)nc2c1.O	250 µM

----------
Quick list: IC50 per entry.
assay system: equine serum butyrylcholinesterase (BChE, EC 3.1.1.8) (Equus caballus)
Construct: equine serum butyrylcholinesterase (BChE, EC 3.1.1.8); purchased Sigma-Aldrich (USA); host or cells: equine serum
assay procedure: biochemical
Assay type: biochemical
applied conditions: first read; read-out: BChE IC50 (µM) First read

structure string	IC50
Cc1ccc2nc(-c3ccc(-c4ccccc4)cc3)cn2c1	485 µM
Cc1cccn2cc(-c3ccc(-c4ccccc4)cc3)nc12	311 µM
Cc1cccn2cc(C34CC5CC(CC(C5)C3)C4)nc12.O	681 µM
Cc1cccn2cc(-c3ccc(Cl)c(Cl)c3)nc12	225 µM
